Examples of substances with documented pEC50 follow.
system-under-test: hGLP-1R (Homo sapiens, UniProt P43220)
Sequence (P43220 24-463): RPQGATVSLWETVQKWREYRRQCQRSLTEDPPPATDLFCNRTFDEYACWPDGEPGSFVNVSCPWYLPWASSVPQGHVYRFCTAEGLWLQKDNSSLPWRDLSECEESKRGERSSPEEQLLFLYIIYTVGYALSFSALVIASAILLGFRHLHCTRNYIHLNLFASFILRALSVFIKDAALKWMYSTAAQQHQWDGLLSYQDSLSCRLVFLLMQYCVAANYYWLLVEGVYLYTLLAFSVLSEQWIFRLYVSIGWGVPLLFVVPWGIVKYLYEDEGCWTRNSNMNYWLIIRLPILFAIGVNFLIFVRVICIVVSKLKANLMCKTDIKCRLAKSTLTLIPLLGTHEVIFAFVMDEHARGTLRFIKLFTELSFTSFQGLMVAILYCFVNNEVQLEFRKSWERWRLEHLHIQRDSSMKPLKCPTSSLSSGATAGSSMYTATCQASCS
assay: Functional cAMP activation in the presence of 0.1% casein (no HSA);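 also: intracellular cAMP rise after 30 min at 37 °C read by HTRF, normalized between buffer only (0%) and maximal control ligand (100%), four-parameter variable-slope fit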
Assay type: cell-based
condition-summary: in the presence of 0.1% casein (no HSA); geometric mean; read-out: Relative cAMP EC50, hGLP-1R
Starred links: 1 amine or outer side, 2 acyl side, 3 side chain; linkers in the order of their positions; H or OH if unused. Non-standard residues stand in square brackets, D forms with d. Groups on a side chain read outwards from the residue. No end group written: not given here. *: point of attachment. C20 diacid = O=C(O)CCCCCCCCCCCCCCCCCCC(=O)*; C18 diacid = O=C(O)CCCCCCCCCCCCCCCCC(=O)*; αMePhe(2-F) = C[C@](N)(Cc1ccccc1F)C(=O)O; γGlu = O=C(O)[C@H](CCC(=O)[*:2])N[*:1]; αMe4Pal = C[C@](N)(Cc1ccncc1)C(=O)O; αMeY = C[C@](N)(Cc1ccc(O)cc1)C(=O)O; 4Pal = N[C@@H](Cc1ccncc1)C(=O)O; αMeL = CC(C)C[C@](C)(N)C(=O)O; αMeS = C[C@](N)(CO)C(=O)O; Orn = NCCC[C@H](N)C(=O)O; AEEA = NCCOCCOCC(=O)O; Aib = CC(C)(N)C(=O)O
In simple prose, pEC50 is minus the logarithm base ten of a concentration in moles per litre.

Summary for this substance, H-Y[Aib]QGT[αMePhe(2-F)]TSD[4Pal][αMeS]I[αMeL]LD[Orn]K([AEEA-γGlu-C18 diacid])AQ[αMe4Pal]EFI[dE][αMeY]LIEGGPSSGEPPPGGE-NH2 [Example 1145] : pEC50 is 9.50

Reported pEC50 for H-Y[Aib]QGTFTSD[4Pal]S[Orn][αMeL]LDKK([γGlu-γGlu-C18 diacid])AQ[αMe4Pal]AFIEYLIE[Aib]GPSSGAPPPSGS-NH2 [Example 865] was 8.52

Reported pEC50 of H-Y[Aib]QGTFTSDFS[Orn][αMeL]LDKK([AEEA-AEEA-γGlu-C18 diacid])AQ[Aib]AFIEYLLE[dA]GPSSG[4Pal]PPPSGH-NH2 [Example 257] : 8.58

Lookup result for Y[Aib]QGTFTSD[4Pal]SQ[αMeL]LD[Orn]K([AEEA-γGlu-γGlu-C18 diacid])AQ[αMe4Pal]AFIEYLIE[dA]GPSSGAPPPSGS-NH2 [Example 1016] ; measured pEC50: 8.81

pEC50 reported for this substance Y[Aib]QGT[αMePhe(2-F)]TSDYSKILDKIAQK([AEEA-γGlu-C20 diacid])AFIQYLIEGGPSSGEPPPSEG-NH2 [Example 354] : 8.92

Note: attention shifts to another entry.
Documented pEC50 of H-Y[Aib]QGTFTSDFS[Orn][αMeL]LDKK([AEEA-AEEA-γGlu-C18 diacid])AQ[Aib]AFIEYLLE[Aib]GHSSGAPPPSGE-NH2 [Example 186] : 8.28

* * *

List of EC50 values.
system-under-test: hGLP-1R (Homo sapiens)
assay: Functional cAMP activation in the presence of 0.1% casein (no HSA)
Format: cell-based
condition-summary: in the presence of 0.1% casein (no HSA); geometric mean; read-out: Relative cAMP EC50, hGLP-1R
Starred links: 1 amine or outer side, 2 acyl side, 3 side chain; linkers in the order of their positions; H or OH if unused. Non-standard residues stand in square brackets, D forms with d. Groups on a side chain read outwards from the residue. *: point of attachment. C20 diacid = O=C(O)CCCCCCCCCCCCCCCCCCC(=O)*; C18 diacid = O=C(O)CCCCCCCCCCCCCCCCC(=O)*; γGlu = O=C(O)[C@H](CCC(=O)[*:2])N[*:1]; αMe4Pal = C[C@](N)(Cc1ccncc1)C(=O)O; 4Pal = N[C@@H](Cc1ccncc1)C(=O)O; αMeL = CC(C)C[C@](C)(N)C(=O)O; Orn = NCCC[C@H](N)C(=O)O; AEEA = NCCOCCOCC(=O)O; Aib = CC(C)(N)C(=O)O
Write it as a number; the unit nM goes unstated.

Before answering, review these 5 worked examples.
EC50 in this record for H-Y[Aib]QGTFTSDFSK[αMeL]LDKK([AEEA-γGlu-C18 diacid])AQ[Aib]AFIEYLIEGGPSSGAPPPSEG-NH2 [Example 49] : 0.706

Summary for this substance, H-Y[Aib]QGTFTSDFSK[αMeL]LDKK([AEEA-γGlu-C18 diacid])AQ[Aib]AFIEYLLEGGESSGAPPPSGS-NH2 [Example 146] : EC50 is 2.73

Entry H-Y[Aib]QGTFTSDFS[Orn][αMeL]LDKK([AEEA-γGlu-C18 diacid])AQ[Aib]AFIEWLLEGGHSSGEPPPEGS-NH2 [Example 127] — recorded EC50 = 4.8

Briefly, EC50 measured for H-Y[Aib]QGTFTSD[4Pal]SQ[αMeL]LDKK([Glu-γGlu-C18 diacid])AQ[αMe4Pal]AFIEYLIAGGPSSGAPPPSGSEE-NH2 [Example 1030] : 1.72

Lab note: measured EC50 of H-Y[Aib]QGTFTSD[4Pal]SK[αMeL]LDKK([AEEA-γGlu-C18 diacid])AQ[αMe4Pal]AFIEYLIE[Aib]GPSSGAPPPSGS-NH2 [Example 915] was 1.5

---
So for H-Y[Aib]QGTFTSDYSI[αMeL]LDKQAAK([AEEA-AEEA-γGlu-C20 diacid])QFVNWLLA[Aib]GPSSGEPPPSEG-NH2 [Example 325] , the logged EC50 turned out to be 1.56
